meta.source: PubChem BioAssay AID1259407

Tested on: CCRIS mutagenicity, Ames/micronucleus/aberration tests
Assay: CCRIS mutagenicity studies
Settings: Test System: AMES SALMONELLA TYPHIMURIUM; Strain/Indicator: TA1538; Metabolic Activation: RAT, LIVER, S-9, AROCLOR 1254; Method: STANDARD PLATE
The source made the active and inactive calls. No rule for the calls is given here.
Form entry, call: pick from yes (1) for active, no (0) for inactive

>>> assigned_class("CCC[C@]1(O)CC[C@H]2[C@@H]3CC[C@H]4CC(=O)C[C@H](C)[C@]4(C)[C@H]3CC[C@@]21C")
"no (0)"
>>> assigned_class("c1ccc2nccnc2c1")
"no (0)"
>>> assigned_class("CC1(C)COC1=O")
"no (0)"

Look up the recorded call for Clc1cc(Cl)nc(Cl)n1 in this test.
no (0)

Look up the recorded call for O=c1[nH]c(=O)n([C@H]2C[C@H](O)[C@@H](CO)O2)cc1/C=C/Br in this test.
no (0)

----------
Test system: CCRIS mutagenicity, Ames/micronucleus/aberration tests
Experiment: CCRIS mutagenicity studies
Settings: Test System: AMES SALMONELLA TYPHIMURIUM; Strain/Indicator: TA97; Metabolic Activation: RAT, LIVER, S-9, AROCLOR 1254 (30%); Method: PREINCUBATION
Active and inactive are the calls of the source. How the calls were made is not given here.
observable: mutagenic call

>>> reported_value("Cc1ccc(N)cc1")
"inactive; negative"
>>> reported_value("CCCCC(CC)CNCC(CC)CCCC (stereo not drawn)")
"inactive; negative"
>>> reported_value("CCCCOCCCC")
"inactive; negative"

----------
System: CCRIS mutagenicity, Ames/micronucleus/aberration tests
Assay: CCRIS mutagenicity studies
Conditions: Test System: AMES SALMONELLA TYPHIMURIUM; Strain/Indicator: TA92; Metabolic Activation: NONE; Method: STANDARD PLATE
Calls of active or inactive are those of the source. How the calls were made is not given here.
Form entry, call: pick from Y (active), N (inactive)

Completed entries (count: 2):
>>> assigned_class("C=CCc1[c-]cccc1.C=CCc1[c-]cccc1.[Pt+2].c1ccc(P(c2ccccc2)c2ccccc2)cc1.c1ccc(P(c2ccccc2)c2ccccc2)cc1")
"N"
>>> assigned_class("Cc1occc(=O)c1O")
"N"

Look up the recorded call for C=CCc1[c-]cccc1.C=CCc1[c-]cccc1.[Pt+2].c1ccc(P(c2ccccc2)c2ccccc2)cc1 in this test.
N

Look up the recorded call for Cc1ccc(N=NN(C)C)cc1 in this test.
N

Look up the recorded call for CC(=O)OCN(CCCCl)N=O in this test.
Y

Look up the recorded call for CC(C)(C)N.CC(C)(C)N.[Cl][Pt][Cl] in this test.
N

Look up the recorded call for CN(C)N=Nc1ccc(Cl)cc1 in this test.
N

Look up the recorded call for O=C1OC(O)C(C(Cl)Cl)=C1Cl (stereo not drawn) in this test.
Y

----------
System: CCRIS mutagenicity, Ames/micronucleus/aberration tests
Assay: CCRIS mutagenicity studies
Settings: Test System: AMES SALMONELLA TYPHIMURIUM; Strain/Indicator: TA1535; Metabolic Activation: RAT, LIVER, S-9, AROCLOR 1254 (10%); Method: PREINCUBATION
Active and inactive are the calls of the source. The rule behind the calls is not given here.
Form entry, call: pick from active, inactive

Completed entries (count: 5):
>>> assigned_class("Oc1c(Br)c(Br)c(Br)c(Br)c1Br")
"inactive"
>>> assigned_class("CC(C)[N+](C)(CCOC(=O)C1c2ccccc2Oc2ccccc21)C(C)C")
"inactive"
>>> assigned_class("CC(=O)Nc1ccccc1N")
"active"
>>> assigned_class("COP(=S)(OC)SCn1nnc2ccccc2c1=O")
"inactive"
>>> assigned_class("OC[P+](CO)(CO)CO")
"inactive"

Look up the recorded call for C=CC(C)C#N (stereo unspecified) in this test.
inactive

Look up the recorded call for F in this test.
inactive

Look up the recorded call for CON in this test.
inactive

Look up the recorded call for CCOCCOC(=O)/C=C/c1ccc(OC)cc1 in this test.
inactive

Look up the recorded call for Nc1ccc(Sc2ccc(N)cc2)cc1 in this test.
inactive

Look up the recorded call for CCCCC(C=O)CC (stereo unspecified) in this test.
inactive

Look up the recorded call for Oc1cccc2cccnc12 in this test.
inactive

Look up the recorded call for O=C(O)c1ccc2c(c1)C(=O)OC2=O in this test.
inactive

Look up the recorded call for CC(C)CN(CC(C)C)CC(C)C in this test.
inactive

Look up the recorded call for O=Cc1ccccc1 in this test.
inactive

Look up the recorded call for Oc1cccc(Nc2ccccc2)c1 in this test.
inactive
